Value source: ChEMBL document CHEMBL1127098

Experiment: Half-life at pH 7.4
Assay type: ADME
Settings: buffer
Recorded endpoint: half-life (min)
Give bare numbers, in min.

What value of half-life has been recorded for this entry: "CCN(CC)CCOC(=O)c1cc(O)c2c(Cl)cc(Cl)cc2n1"
22
